Reference for the values: patent US20220144922A1

Biological target: T1, prefusion-stabilized RSV F ectodomain (DS-Cav1), subtype B (respiratory syncytial virus subtype B)
T1 construct: extracellular domain; also called Prefusion subtype B
Assay: BLI, IgG on sensor
Quick list: Kd per entry.
measure: Kd (nM)

binder	recorded.measurement
ADI-15633 (antibody, V domains shown, IgG) VH: QVQLVQSGAEVKKPGESLKISCKGSGYTFRMYWIGWARLLPGKGLEWIGIIYPGDSDTRYNPSLQGQVTMSVDKSINTAYLQWGSLKASDSAIYYCARLRLHPQSGMDVWGQGTLVTVSS VL: NFMLTQPHSVSESPGKTVVISCTRSSGSIAGYYVQWYQHRPGSSPTTVIYEDDQRPSGVPDRFSGSVDSSSNSASLTISGLKTEDEADYYCQSYDNAIWVFGGGTKLTVL	0.896
ADI-15005 (antibody, V domains shown, IgG; also called Antibody Number 124) VH: QVQLVESGPALVKPTQTLTLTCSFSGFSLTTRRMCVSWIRQTPGKALEWLARIDWDDDKDYSTSLKTRLTISKDTSKNQVVLTMTNMDPVDTATYYCARTHIYDSSGYYLYYFDYWGQGTLVTVSS VL: DIVLTQSPSSLSASIGDRVTITCRASQTIASYLNWYQQKPGKAPELLIYAATNLQSGVPSRFSGSGSGTDFTLTISSLRPEDFASYYCQQSYSSPWTFGQGTKVDIK	1.4
